SUBJECT_OF_TEST: GLUT1 (Homo sapiens, UniProt P11166)
Sequence (P11166 whole entry, species assumed): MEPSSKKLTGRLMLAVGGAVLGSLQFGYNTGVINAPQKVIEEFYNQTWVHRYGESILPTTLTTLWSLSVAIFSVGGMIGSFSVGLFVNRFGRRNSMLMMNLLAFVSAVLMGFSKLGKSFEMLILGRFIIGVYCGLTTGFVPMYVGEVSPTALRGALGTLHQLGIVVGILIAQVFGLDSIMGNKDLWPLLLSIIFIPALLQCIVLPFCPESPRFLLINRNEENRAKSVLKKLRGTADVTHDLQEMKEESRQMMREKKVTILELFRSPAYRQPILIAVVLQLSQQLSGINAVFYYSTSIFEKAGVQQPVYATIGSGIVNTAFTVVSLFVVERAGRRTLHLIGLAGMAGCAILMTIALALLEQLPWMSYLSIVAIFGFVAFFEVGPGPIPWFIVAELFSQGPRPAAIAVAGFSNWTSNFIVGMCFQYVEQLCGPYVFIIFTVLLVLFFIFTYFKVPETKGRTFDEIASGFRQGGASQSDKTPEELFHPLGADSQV
ASSAY_PROTOCOL: Indirect measurement of GLUT1 activity by quantification of intracellular ATP levels (glucose induced ATP increase)
Assay type: cell-based
Design: endogenous in cells; host or cells: DLD1 or CHO-K1
TEST_CONTEXT: read-out: IC50 regarding glucose induced ATP increase (GLUT1 inhibition)
PARAMETER: IC50 (nM)

Example results:
COCCNC(=O)c1ccc(Cn2nc(C)c(NC(=O)c3cc(C(F)(F)F)nc4ccc(Br)cc34)c2C)cc1 : 10.7
Cc1c(NC(=O)c2cc(C(N)=O)nc3cc(F)c(Cl)cc23)c(C(F)(F)F)nn1Cc1cccc(C#N)n1 : 30.9
Cc1nn(Cc2ccc(C(=O)NCCn3ccnc3)cc2)c(C)c1NC(=O)c1cc(C(F)(F)F)nc2ccc(Br)cc12 : 59.5
Cc1c(NC(=O)c2cc(C(=O)NCCCO)nc3cc(F)ccc23)c(C(F)(F)F)nn1Cc1ccc(C#N)cc1 : 290
CCOC(=O)c1nn(Cc2ccc(F)cc2)c(C)c1NC(=O)c1cc(C(F)(F)F)nc2ccc(Br)cc12 : 914
Cc1nn(Cc2ccc(C(=O)NC[C@H](O)CO)cc2)c(C)c1NC(=O)c1cc(C(F)(F)F)nc2ccc(Br)cc12 : 57
COc1cc(C(=O)Nc2c(C(=O)N(C)C)nn(Cc3ccc(F)cc3)c2C)c2ccccc2n1 : 2480
Cc1cccc(Cn2nc(C)c(NC(=O)c3cc(C(N)=O)nc4cc(F)ccc34)c2C)c1 : 2.1

a: Cc1c(NC(=O)c2cc(C(F)(F)F)nc3c(Cl)cc(Cl)cc23)c(C(F)(F)F)nn1Cc1ccc(F)cc1
b: Cc1nn(Cc2ccc(C(=O)NC3CCNC3=O)cc2)c(C)c1NC(=O)c1cc(C(F)(F)F)nc2ccc(Br)cc12 (racemic)
Compare the recorded IC50 of a and b ; state which is larger. // caller expects the label of the chosen entry
b
(b: 170 nM, a: 29.5 nM)

P: COc1cccc(Cn2nc(C)c(NC(=O)c3cc(C)nc4ccc(C)cc34)c2C)c1
Q: Cc1nn(Cc2ccc(C#N)cn2)c(C)c1NC(=O)c1cc(C(F)(F)F)nc2ccc(Br)cc12
Please let me know which one, P or Q , has a lower measured IC50 value. Refer to your chosen item by its label in the answer.
Q

* * *

SUBJECT_OF_TEST: GLUT1 (Homo sapiens)
ASSAY_PROTOCOL: Indirect measurement of GLUT1 activity by quantification of intracellular ATP levels (glucose induced ATP increase)
Format: cell-based
Parameters: endogenous in cells; host or cells: DLD1 or CHO-K1
TEST_CONTEXT: read-out: IC50 regarding glucose induced ATP increase (GLUT1 inhibition)
pIC50: −log10 of the molar value.
PARAMETER: pIC50

Cc1nn(CC2CCNCC2)c(C)c1NC(=O)c1cc(C(F)(F)F)nc2ccc(Br)cc12 [Example 1222] : 6.05
Cc1nn(Cc2ccc(C(=O)NCC3CC3)cc2)c(C)c1NC(=O)c1cc(C(F)(F)F)nc2ccc(Br)cc12 [Example 1079] : 7.61
Cc1c(NC(=O)c2cc(C(N)=O)nc3cc(F)ccc23)c(C(F)(F)F)nn1Cc1ccc(CC#N)cc1 [Example 403] : 9.00
CCc1c(NC(=O)c2cc(C(N)=O)nc3cc(F)c(Cl)cc23)c(C(F)(F)F)nn1Cc1ccc(C#N)cc1 [Example 314] : 8.80
Cc1ccc2nc(C)cc(C(=O)Nc3c(C)nn(CC4CCOCC4)c3C)c2c1 [Example 1176] : 6.68

I: Cc1nn(Cc2ccc(C(=O)NCc3cncn3C)cc2)c(C)c1NC(=O)c1cc(C(F)(F)F)nc2ccc(Br)cc12 [Example 1142]
II: COc1cc(C(=O)Nc2c(C)nn(Cc3ccc(OC(F)(F)F)cc3)c2C)c2ccccc2n1 [Example 23]
Please indicate which has the smaller reported pIC50: I , or II . Answer with the label corresponding to your selection.
I
